Reported values of Ratio for individual entries
# target_or_system: ATP-dependent translocase ABCB1 (Homo sapiens)
# test_description: Inhibition of ABCB1 in multidrug resistant human COLO320 cells assessed as fluorescence activity ratio at 20 uM incubated for 10 mins by flow cytometry based rhodamine-123 accumulation assay (reference value: 0.62)
// no unit, no text: just the number

Known Ratio results, listed for orientation:
C/C1=C\[C@@H]2[C@H](CC[C@@](C)(O)[C@H](O)[C@H]3[C@@H](OC(=O)c4ccccc4)[C@@H](C)C[C@]3(O)[C@H]1O)C2(C)C ... 4.29
CCC(=O)OC[C@]1(O)CC[C@H]2[C@@H](/C=C(\C)C(=O)[C@@]3(O)C[C@H](C)[C@H](OC(=O)CC)[C@@H]3[C@H]1O)C2(C)C ... 2.25

Query :: Please look up its Ratio: CO[C@H]1[C@@H]2[C@H](CC[C@]3(COC(C)=O)O[C@@H]3[C@H]3[C@@H](OC(C)=O)[C@@H](C)C[C@]3(O)C(=O)[C@@H]1C)C2(C)C
Result :: 2.25

Query :: Please look up its Ratio: C/C1=C\[C@@H]2[C@H](CC[C@]3(CO3)[C@H](OC(=O)c3ccc(N(C)C)cc3)[C@H]3[C@@H](OC(=O)c4ccc(N(C)C)cc4)[C@@H](C)C[C@]3(O)C1=O)C2(C)C
Result :: 12.31

Query :: Please look up its Ratio: CC(=O)O[C@@H]1[C@@H]2[C@@H](OC(C)=O)[C@](C)(OC(C)=O)CC[C@H]3[C@@H](/C=C(\C)[C@H](OC(C)=O)[C@@]2(OC(C)=O)C[C@@H]1C)C3(C)C
Result :: 5.98

---

# target_or_system: ATP-dependent translocase ABCB1 (Homo sapiens, UniProt P08183)
# Sequence (P08183 whole entry): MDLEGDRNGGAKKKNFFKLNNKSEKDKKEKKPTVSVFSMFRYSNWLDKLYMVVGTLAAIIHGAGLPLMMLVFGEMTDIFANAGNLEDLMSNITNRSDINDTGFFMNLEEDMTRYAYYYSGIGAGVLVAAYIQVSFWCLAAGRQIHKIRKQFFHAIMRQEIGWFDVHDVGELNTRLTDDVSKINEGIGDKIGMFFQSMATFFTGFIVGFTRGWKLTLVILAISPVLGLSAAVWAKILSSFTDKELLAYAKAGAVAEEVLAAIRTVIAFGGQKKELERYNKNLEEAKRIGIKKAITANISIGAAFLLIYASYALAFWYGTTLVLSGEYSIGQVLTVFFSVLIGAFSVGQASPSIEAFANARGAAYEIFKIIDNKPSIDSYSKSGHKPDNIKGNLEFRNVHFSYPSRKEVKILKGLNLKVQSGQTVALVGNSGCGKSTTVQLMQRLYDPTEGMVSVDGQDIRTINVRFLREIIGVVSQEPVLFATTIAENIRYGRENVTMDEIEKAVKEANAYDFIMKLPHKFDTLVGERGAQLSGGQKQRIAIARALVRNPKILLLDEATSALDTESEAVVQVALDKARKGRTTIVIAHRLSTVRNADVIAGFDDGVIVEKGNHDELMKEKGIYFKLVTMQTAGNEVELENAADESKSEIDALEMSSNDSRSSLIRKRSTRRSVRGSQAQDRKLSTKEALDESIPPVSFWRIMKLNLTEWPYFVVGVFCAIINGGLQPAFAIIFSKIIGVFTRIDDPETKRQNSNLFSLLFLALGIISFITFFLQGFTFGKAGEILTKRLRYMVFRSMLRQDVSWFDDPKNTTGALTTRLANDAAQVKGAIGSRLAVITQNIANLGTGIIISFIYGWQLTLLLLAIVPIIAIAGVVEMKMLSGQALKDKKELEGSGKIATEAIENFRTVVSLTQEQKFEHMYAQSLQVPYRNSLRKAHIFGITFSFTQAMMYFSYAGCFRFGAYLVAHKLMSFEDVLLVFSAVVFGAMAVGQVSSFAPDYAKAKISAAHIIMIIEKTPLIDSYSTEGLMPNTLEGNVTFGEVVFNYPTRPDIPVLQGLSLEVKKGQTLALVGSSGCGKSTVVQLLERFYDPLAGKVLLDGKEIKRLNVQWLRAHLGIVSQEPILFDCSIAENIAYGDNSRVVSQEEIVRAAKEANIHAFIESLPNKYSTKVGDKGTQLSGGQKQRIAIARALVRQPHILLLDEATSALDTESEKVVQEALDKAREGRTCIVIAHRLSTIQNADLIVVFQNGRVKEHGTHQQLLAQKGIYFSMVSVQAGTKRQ
# test_description: Inhibition of human ABCB1 expressed in mouse L5178Y cells assessed as fluorescence activity ratio at 20 uM incubated for 10 mins by flow cytometry based rhodamine-123 accumulation assay (reference value: 0.78)
# Assay type: cell-based
Reported values of Ratio for individual entries
// no unit, no text: just the number

Known Ratio results, listed for orientation:
CCC(=O)OC[C@]1(O)CC[C@H]2[C@@H](/C=C(\C)C(=O)[C@@]3(O)C[C@H](C)[C@H](OC(=O)CC)[C@@H]3[C@H]1O)C2(C)C ... 2.07
C/C1=C\[C@@H]2[C@H](CC[C@]3(CO3)[C@H](OC(=O)c3ccc4ccccc4c3)[C@H]3[C@@H](OC(=O)c4ccc5ccccc5c4)[C@@H](C)C[C@]3(O)C1=O)C2(C)C ... 66.52

Query :: Please look up its Ratio: C/C1=C\[C@@H]2[C@H](CC[C@@](C)(O)[C@H](O)[C@H]3[C@@H](O)[C@@H](C)C[C@]3(O)[C@H]1O)C2(C)C
Result :: 0.59

---

# target_or_system: ATP-dependent translocase ABCB1 (Homo sapiens)
# test_description: Inhibition of ABCB1 in multidrug resistant human COLO320 cells assessed as fluorescence activity ratio at 2 uM incubated for 10 mins by flow cytometry based rhodamine-123 accumulation assay (reference value: 0.62)
Label key: MET means Ratio under 3; NOT MET means Ratio of 3 or more.

Examples with answers:
COc1ccccc1C(=O)OC[C@]1(C)CC[C@H]2[C@@H](/C=C(\C)C(=O)[C@@]3(O)C[C@H](C)[C@H](OC(=O)c4ccccc4OC)[C@@H]3[C@H]1O)C2(C)C ... NOT MET
C/C1=C\[C@@H]2[C@H](CC[C@]3(CO3)[C@H](OC(=O)N3CCOCC3)[C@H]3[C@@H](OC(=O)N4CCOCC4)[C@@H](C)C[C@]3(O)C1=O)C2(C)C ... MET

Now turn to the next compound.
Query :: In the record for CC(=O)O[C@@H]1[C@@H]2[C@@H](OC(C)=O)[C@](C)(OC(C)=O)CC[C@H]3[C@@H](/C=C(\C)[C@H](OC(C)=O)[C@@]2(OC(C)=O)C[C@@H]1C)C3(C)C , is Ratio less than 3?
Result :: MET
